# method description: Sensory evaluation of sweetness intensity in sucralose solution (Experimental Examples 23-24)
# test parameters: added alone at 0.001 ppb to 0.0140 wt % sucralose solution; average score

# smiles code, sweetness intensity
rows = [
    ("CCCCCCCC(=O)O", "0.5 points"),
    ("CCCCCCCCCCC(=O)O", "0.9 points"),
    ("CCCCCCCCCCCC(=O)O", "1.0 points"),
    ("CCCCCCCCC(=O)O", "1.3 points"),
]

====

Catalogue of sweetness intensity readings, one per entry.
# method description: Sensory evaluation of sweetness intensity in RebM solution (Experimental Examples 20-21)
# test parameters: acid added alone at 0.01 ppb
metric: sweetness intensity

# smiles code, value reported
data = [
    ("CCCCCCCCCCCC(=O)O", "1.7 points"),
    ("CCCCCCCC(=O)O", "1.8 points"),
    ("CCCCCCCCCCC(=O)O", "2.0 points"),
    ("CCCCCCCCC(=O)O", "1.4 points"),
]

====

# method description: Sensory evaluation of sweetness intensity in RebA solution, four reference samples (Experimental Examples 17-19)
# test parameters: acid added alone at 1000 ppb

# smiles code, result units, sweetness intensity
rows = [
    ("CCCCCCCC(=O)O", "points", 3.7),
    ("CCCCCCCCCCCC(=O)O", "points", 6.0),
    ("CCCCCCCCC(=O)O", "points", 4.8),
    ("CCCCCCCCCCC(=O)O", "points", 6.2),
]

====

Catalogue of sweetness intensity readings, one per entry.
# method description: Sensory evaluation of sweetness intensity in RebA solution, four reference samples (Experimental Examples 17-19)
# test parameters: acid added alone at 0.01 ppb

# compound, sweetness intensity [points]
measured = [
    ("CCCCCCCCC(=O)O [nonanoic acid]", 1.0),
    ("CCCCCCCCCCC(=O)O [undecanoic acid]", 1.9),
    ("CCCCCCCC(=O)O [octanoic acid]", 0.4),
    ("CCCCCCCCCCCC(=O)O [dodecanoic acid]", 1.3),
]
